The entries below come with measured MIC values attached.
# Test system: Mycobacterium avium
# protocol_details: MIC, micro broth dilution with resazurin readout
# Assay type: cell-based
# condition_summary: MH Broth, Mycobacterium avium Rough, read-out: Minimum Inhibitory Concentration (MIC)
Just the number please, in µg/mL, no unit attached.

Before answering, review these 2 worked examples.
CO[C@H]1/C=C/O[C@@]2(C)Oc3c(C)c(O)c4c(O)c(c(/C=N/N5CCN(C)CC5)c(O)c4c3C2=O)NC(=O)/C(C)=C\C=C\[C@H](C)[C@H](O)[C@@H](C)[C@@H](O)[C@@H](C)[C@H](OC(C)=O)[C@@H]1C [Rifampicin] : 8
CO[C@H]1/C=C/O[C@@]2(C)Oc3c(C)c(O)c4c(c3C2=O)C2=NC3(CCN(CCn5c([N+](=O)[O-])cnc5C)CC3)NC2=C(NC(=O)/C(C)=C\C=C\[C@H](C)[C@H](O)[C@@H](C)[C@@H](O)[C@@H](C)[C@H](OC(C)=O)[C@@H]1C)C4=O [Compound I] : 4

Kindly review the next molecule as well.
// query Report MIC for NCC[C@H](O)C(=O)N[C@@H]1C[C@H](N)[C@@H](O[C@H]2O[C@H](CN)[C@@H](O)[C@H](O)[C@H]2O)[C@H](O)[C@H]1O[C@H]1O[C@H](CO)[C@@H](O)[C@H](N)[C@H]1O [Amikacin] please.
// result 2

###

# Test system: Mycobacterium kansasii
# protocol_details: MIC, micro broth dilution with resazurin readout
# Format: cell-based
# condition_summary: MH Culture Medium, clinically isolated strain Kansasii (S199), read-out: Minimum Inhibitory Concentration (MIC)
Parameter: MIC. Scope: all listed entries.
Hi! Could you send only the number? It should be in µg/mL, unit omitted.

See these solved cases before continuing.
CO[C@H]1/C=C/O[C@@]2(C)Oc3c(C)c(O)c4c(c3C2=O)C2=NC3(CCN(CC(C)C)CC3)NC2=C(NC(=O)/C(C)=C\C=C\[C@H](C)[C@H](O)[C@@H](C)[C@@H](O)[C@@H](C)[C@H](OC(C)=O)[C@@H]1C)C4=O : 0.0625
Cc1ncc([N+](=O)[O-])n1CCO : 8
COc1c(N2C[C@@H]3CCCN[C@@H]3C2)c(F)cc2c(=O)c(C(=O)O)cn(C3CC3)c12 : 0.0625
CC[C@H]1OC(=O)[C@H](C)[C@@H](O[C@H]2C[C@@](C)(OC)[C@@H](O)[C@H](C)O2)[C@H](C)[C@@H](O[C@@H]2O[C@H](C)C[C@H](N(C)C)[C@H]2O)[C@](C)(OC)C[C@@H](C)C(=O)[C@H](C)[C@@H](O)[C@]1(C)O : 0.0625
CO[C@H]1/C=C/O[C@@]2(C)Oc3c(C)c(O)c4c(O)c(c(/C=N/N5CCN(C)CC5)c(O)c4c3C2=O)NC(=O)/C(C)=C\C=C\[C@H](C)[C@H](O)[C@@H](C)[C@@H](O)[C@@H](C)[C@H](OC(C)=O)[C@@H]1C : 0.0625

From here, focus on the item given below.
// query Report MIC for CO[C@H]1/C=C/O[C@@]2(C)Oc3c(C)c(O)c4c(c3C2=O)C2=NC3(CCN(CCn5c([N+](=O)[O-])cnc5C)CC3)NC2=C(NC(=O)/C(C)=C\C=C\[C@H](C)[C@H](O)[C@@H](C)[C@@H](O)[C@@H](C)[C@H](OC(C)=O)[C@@H]1C)C4=O please.
// result 0.0625

###

# Test system: Mycobacterium fortuitum
# protocol_details: MIC, micro broth dilution with resazurin readout
# Type: cell-based
# condition_summary: Mycolicibacterium fortuitum, MH Culture Medium; Fortuitum (standard strain); read-out: Minimum Inhibitory Concentration (MIC)
Let's look at some compounds and their measured MIC.
Give just the number in µg/mL; leave the unit off.

CO[C@H]1/C=C/O[C@@]2(C)Oc3c(C)c(O)c4c(c3C2=O)C2=NC3(CCN(CC(C)C)CC3)NC2=C(NC(=O)/C(C)=C\C=C\[C@H](C)[C@H](O)[C@@H](C)[C@@H](O)[C@@H](C)[C@H](OC(C)=O)[C@@H]1C)C4=O : 4
Cc1ncc([N+](=O)[O-])n1CCO : 16
CC[C@H]1OC(=O)[C@H](C)[C@@H](O[C@H]2C[C@@](C)(OC)[C@@H](O)[C@H](C)O2)[C@H](C)[C@@H](O[C@@H]2O[C@H](C)C[C@H](N(C)C)[C@H]2O)[C@](C)(OC)C[C@@H](C)C(=O)[C@H](C)[C@@H](O)[C@]1(C)O : 32

Now consider a different compound.
// query Param item = COc1c(N2C[C@@H]3CCCN[C@@H]3C2)c(F)cc2c(=O)c(C(=O)O)cn(C3CC3)c12 ; retrieve measured MIC.
// result 1

###

# Tested on: Mycobacterium fortuitum
# protocol_details: MIC, micro broth dilution with resazurin readout
# Assay type: cell-based
# condition_summary: Mycolicibacterium fortuitum, MH Culture Medium; clinically isolated strain Fortuitum (S103); read-out: Minimum Inhibitory Concentration (MIC)
Each record here notes measured MIC.

CC[C@H]1OC(=O)[C@H](C)[C@@H](O[C@H]2C[C@@](C)(OC)[C@@H](O)[C@H](C)O2)[C@H](C)[C@@H](O[C@@H]2O[C@H](C)C[C@H](N(C)C)[C@H]2O)[C@](C)(OC)C[C@@H](C)C(=O)[C@H](C)[C@@H](O)[C@]1(C)O [Clarithromycin] : > 64 µg/mL
CO[C@H]1/C=C/O[C@@]2(C)Oc3c(C)c(O)c4c(O)c(c(/C=N/N5CCN(C)CC5)c(O)c4c3C2=O)NC(=O)/C(C)=C\C=C\[C@H](C)[C@H](O)[C@@H](C)[C@@H](O)[C@@H](C)[C@H](OC(C)=O)[C@@H]1C [Rifampicin] : > 64 µg/mL

// query May I ask what MIC has been recorded for CO[C@H]1/C=C/O[C@@]2(C)Oc3c(C)c(O)c4c(c3C2=O)C2=NC3(CCN(CCn5c([N+](=O)[O-])cnc5C)CC3)NC2=C(NC(=O)/C(C)=C\C=C\[C@H](C)[C@H](O)[C@@H](C)[C@@H](O)[C@@H](C)[C@H](OC(C)=O)[C@@H]1C)C4=O [Compound I] ?
// result > 64 µg/mL

These entries and their values trace back to patent US20200360352A1.
